Target: HDAC6 (Homo sapiens)
Experiment: In vitro HDAC6 fluorogenic enzymatic assay
Conditions: recombinant human HDAC6; dose-response 300 µM to 135 nM
pIC50: −log10 of the molar value.
parameter_measured: pIC50

As a guide, the following entries are already answered.
[[record]]
compound = "Oc1cc(-c2ccc(Br)o2)on1 [Compound 21]"
parameter_measured = "pIC50"
observed_measurement = 4.53

[[record]]
compound = "Oc1cc(-c2ccc(OCc3ccc(Cl)c(Cl)c3)cc2)on1 [Compound 27]"
parameter_measured = "pIC50"
observed_measurement = 5.09


1: Oc1cc(-c2ccc3c(c2)OCO3)on1 [Compound 25]
2: Oc1cc(-c2ccc(Br)cn2)on1 [Compound 28]
3: Cc1ccc(-c2cc(O)no2)s1 [Compound 24]
4: Oc1cc(-c2ccc(NCc3ccccc3)cc2)on1 [Compound 23]
# desc sort on pIC50 across 4 compounds // rank by listing labels in the order requested
4, 1, 3, 2

I: O=c1cc(-c2ccccc2)o[nH]1 [Compound 13, 3-hydroxy-5-phenyl-isoxazole]
II: O=[N+]([O-])c1ccc(-c2cc(O)no2)cc1 [Compound 18]
Would you mind telling me which has the lower recorded pIC50 between I and II ? Answer by quoting the chosen item's label.
I
(I: 4.01, II: 4.79)

I: Oc1cc(-c2cccc(Br)c2)on1 [Compound 22]
II: Oc1cc(-c2ccc(OCc3ccccc3)cc2)on1 [Compound 17]
Short answer wanted: higher pIC50, I or II ? Please indicate the selected item by its label.
II

----------
Molecular target: HDAC6 (Homo sapiens, UniProt Q9UBN7)
Sequence (Q9UBN7 1-1215): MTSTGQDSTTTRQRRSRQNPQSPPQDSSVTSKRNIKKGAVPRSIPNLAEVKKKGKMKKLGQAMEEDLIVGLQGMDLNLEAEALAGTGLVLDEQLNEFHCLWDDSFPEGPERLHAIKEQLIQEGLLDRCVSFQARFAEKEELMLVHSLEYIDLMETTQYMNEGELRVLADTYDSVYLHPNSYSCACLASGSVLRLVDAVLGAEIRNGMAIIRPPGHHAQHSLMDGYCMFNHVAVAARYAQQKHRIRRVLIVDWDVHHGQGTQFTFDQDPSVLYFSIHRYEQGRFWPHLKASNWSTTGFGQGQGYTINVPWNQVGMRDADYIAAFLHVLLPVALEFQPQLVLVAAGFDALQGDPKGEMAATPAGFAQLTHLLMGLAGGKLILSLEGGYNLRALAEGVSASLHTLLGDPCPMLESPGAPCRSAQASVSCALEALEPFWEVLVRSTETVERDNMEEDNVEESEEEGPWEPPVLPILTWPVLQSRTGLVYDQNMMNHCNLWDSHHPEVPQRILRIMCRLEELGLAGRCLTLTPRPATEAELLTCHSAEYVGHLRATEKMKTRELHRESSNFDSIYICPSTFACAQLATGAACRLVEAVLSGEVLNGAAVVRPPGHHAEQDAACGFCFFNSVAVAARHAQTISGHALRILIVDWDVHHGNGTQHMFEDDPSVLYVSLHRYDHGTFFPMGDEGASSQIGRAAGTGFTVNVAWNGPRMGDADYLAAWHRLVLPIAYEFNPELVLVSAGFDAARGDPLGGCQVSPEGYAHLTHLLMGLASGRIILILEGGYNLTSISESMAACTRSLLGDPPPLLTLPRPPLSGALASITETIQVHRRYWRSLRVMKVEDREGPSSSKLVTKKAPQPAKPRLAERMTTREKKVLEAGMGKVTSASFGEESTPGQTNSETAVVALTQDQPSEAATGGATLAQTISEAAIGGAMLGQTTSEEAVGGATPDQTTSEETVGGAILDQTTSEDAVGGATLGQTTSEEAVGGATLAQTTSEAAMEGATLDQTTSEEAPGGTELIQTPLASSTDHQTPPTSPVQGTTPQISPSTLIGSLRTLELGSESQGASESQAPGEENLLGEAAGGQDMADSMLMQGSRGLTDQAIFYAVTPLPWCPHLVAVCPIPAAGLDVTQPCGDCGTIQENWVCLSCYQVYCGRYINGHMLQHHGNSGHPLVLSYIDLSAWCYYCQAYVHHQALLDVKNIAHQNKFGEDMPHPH
Test: In vitro HDAC6 fluorogenic enzymatic assay
Conditions: recombinant human HDAC6; dose-response 300 µM to 135 nM
# IC50 values compiled below

Here's what some known entries look like.
[[record]]
line_notation = "Oc1cc(-c2cccc3ccccc23)on1"
observed_measurement = "> 300 µM"

[[record]]
line_notation = "Oc1cc(-c2ccco2)on1"
observed_measurement = "> 100 µM"

[[record]]
line_notation = "Oc1cc(-c2ccc3ccccc3c2)on1"
observed_measurement = "> 300 µM"

[[record]]
line_notation = "Oc1cc(-c2ccccc2Cl)on1"
observed_measurement = "> 300 µM"

[[record]]
line_notation = "COc1ccc(-c2cc(O)no2)cc1"
observed_measurement = "> 300 µM"

[[record]]
line_notation = "O=C(O)c1cc(-c2ccccc2)on1"
observed_measurement = "> 300 µM"


Field: next compound
Tell me its IC50 given Oc1cc(-c2cccc(C(F)(F)F)c2)on1 as the entry.
> 300 µM
